# Tested on: HCT-116 colon
# ASSAY_PROCEDURE: NCI tumour cell line growth inhibition, 48 h
Where a SMILES comes first, the peptide text is derived from it. The star is where a group is joined. Cbz = O=C(OCc1ccccc1)*; NHNH2 = NN*
PROPERTY_LABEL: TGI

Exercise: Query (compound): Cc1cn(C(C)OCCN2C(=O)c3ccccc3C2=O)c(=O)[nH]c1=O (stereo unspecified) ; field requested: TGI
Key: > 100 µM

Exercise: Query (compound): Nc1ccc(S(=O)(=O)Nc2nc3ccccc3nc2N2CCCCC2)cc1 ; field requested: TGI
Key: > 100 µM

Exercise: Query (compound): CC1=CC(=Nc2ccc(N(CCCl)CCCl)cc2)C=C(C)C1=O ; field requested: TGI
Key: 2.38 µM

Exercise: Query (compound): NC(=O)c1ccc(I)c(N)c1 ; field requested: TGI
Key: > 100 µM

Exercise: Query (compound): COC(=O)CC(NC(=O)OCc1ccccc1)C(=O)NC(CC(=O)OC)C(=O)NC(CC(=O)OC)C(=O)NC(CC(=O)OC)C(=O)NC(CC(=O)OC)C(=O)NC(CC(=O)OC)C(=O)NN (stereo unspecified) (Cbz-D(OMe)D(OMe)D(OMe)D(OMe)D(OMe)D(OMe)-NHNH2; configuration not given here) ; field requested: TGI
Key: > 100 µM

Exercise: Query (compound): [Cl-].[Dy+3].[O-]/N=C(\c1ccccc1)c1ccccn1.[O-]/N=C(\c1ccccc1)c1ccccn1.[O-]/N=C(\c1ccccc1)c1ccccn1 ; field requested: TGI
Key: > 100 µM

Exercise: Query (compound): COC(=O)C1CC2(c3ccccc3)C(=O)c3ccccc3N2O1 (stereo unspecified) ; field requested: TGI
Key: > 100 µM

Exercise: Query (compound): CC1S/C(=N/c2nnc(-c3ccccc3)o2)NC1=O (stereo unspecified) ; field requested: TGI
Key: 37.4 µM

Exercise: Query (compound): N#Cc1ccc(NC(=O)Nc2ccc(Oc3ccc(NC(=O)Nc4ccc(C#N)cc4)cc3)cc2)cc1 ; field requested: TGI
Key: > 100 µM

Exercise: Query (compound): c1ccc2c3c(c(N4CCOCC4)nc2c1)CCCC3 ; field requested: TGI
Key: > 100 µM

Exercise: Query (compound): CC(C)(C)C1C=C(Sc2ccccc2)C(=O)O1 (stereo unspecified) ; field requested: TGI
Key: > 100 µM

Exercise: Query (compound): COc1ccc(/C(COc2c(-c3ccccc3)oc3ccccc3c2=O)=N\O)cc1 ; field requested: TGI
Key: > 50 µM

Exercise: Query (compound): Nc1cc(N)c2nc(-c3ccccc3)c(Nc3ccc(Cl)c(Cl)c3)nc2c1 ; field requested: TGI
Key: 53 µM

Exercise: Query (compound): O=C(/N=N/C(=O)OCc1ccccc1)OCc1ccccc1 ; field requested: TGI
Key: > 100 µM

Exercise: Query (compound): NC(=O)C(=CNC(=S)c1ccncc1)C(N)=O ; field requested: TGI
Key: > 100 µM

Exercise: Query (compound): O=c1c2cc([N+](=O)[O-])ccc2sc2ccsc12 ; field requested: TGI
Key: > 100 µM

Exercise: Query (compound): COc1ccc(-c2c(C#N)c(N)nc3c2CCS(=O)(=O)c2ccccc2-3)cc1 ; field requested: TGI
Key: > 100 µM

Exercise: Query (compound): CCC(C(=O)c1ccc(OC)c(OC)c1)N(C(=O)C(F)(F)F)C(C)c1ccccc1 (stereo unspecified) ; field requested: TGI
Key: > 100 µM

Exercise: Query (compound): COc1c(C)c2nc3ccccc3[nH]c2c2c(=O)ccnc12 ; field requested: TGI
Key: > 100 µM

Exercise: Query (compound): CC1CC(=O)Nc2nc3ccccc3n21 (stereo unspecified) ; field requested: TGI
Key: > 100 µM

Exercise: Query (compound): O=C(CC1=NCCN1)c1ccccc1 ; field requested: TGI
Key: > 750 µM

// data source = PubChem BioAssay (NCI)
